Provenance of the data: patent US20250152585A1

target.desc: full length N-terminally FLAG-tagged PARP1 (Homo sapiens, UniProt P09874)
Sequence (P09874 whole entry): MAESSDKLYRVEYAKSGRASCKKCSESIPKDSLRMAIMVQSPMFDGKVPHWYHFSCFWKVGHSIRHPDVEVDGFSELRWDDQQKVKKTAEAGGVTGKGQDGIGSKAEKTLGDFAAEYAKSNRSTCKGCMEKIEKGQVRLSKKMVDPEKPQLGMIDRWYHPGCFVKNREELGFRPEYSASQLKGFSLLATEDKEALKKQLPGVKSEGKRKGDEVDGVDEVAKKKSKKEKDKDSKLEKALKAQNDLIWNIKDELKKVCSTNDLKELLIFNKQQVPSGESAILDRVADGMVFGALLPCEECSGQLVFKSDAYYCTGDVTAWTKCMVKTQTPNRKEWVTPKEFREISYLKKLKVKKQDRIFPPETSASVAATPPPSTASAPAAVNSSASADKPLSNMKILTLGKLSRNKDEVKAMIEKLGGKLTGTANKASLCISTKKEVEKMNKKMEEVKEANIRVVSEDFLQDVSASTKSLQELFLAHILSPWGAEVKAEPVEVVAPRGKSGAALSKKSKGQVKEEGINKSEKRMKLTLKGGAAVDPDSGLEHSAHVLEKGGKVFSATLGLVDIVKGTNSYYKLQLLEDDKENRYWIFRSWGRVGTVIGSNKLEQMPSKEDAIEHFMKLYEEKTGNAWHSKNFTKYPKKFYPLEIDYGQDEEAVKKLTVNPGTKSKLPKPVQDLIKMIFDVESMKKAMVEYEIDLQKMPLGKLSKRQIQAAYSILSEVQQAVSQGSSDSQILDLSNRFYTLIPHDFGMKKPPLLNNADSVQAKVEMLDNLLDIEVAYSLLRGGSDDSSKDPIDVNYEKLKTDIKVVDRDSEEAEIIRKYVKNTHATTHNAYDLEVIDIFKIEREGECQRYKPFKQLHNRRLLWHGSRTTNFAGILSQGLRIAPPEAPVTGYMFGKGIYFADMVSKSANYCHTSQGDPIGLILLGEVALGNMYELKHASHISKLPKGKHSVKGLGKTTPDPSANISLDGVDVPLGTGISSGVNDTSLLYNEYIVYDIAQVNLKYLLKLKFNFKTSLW
assay.explanation: PARP1 probe displacement HTRF assay
measurement.parameters: read-out: PARP1 HTRF; binned Kd, PARP1 probe displacement HTRF
observable: Kd

Use these answered entries as a reference point.
compound	target.desc	Kd
CCc1cnc(C2CCN(C3CCC(F)(F)CC3)C2)[nH]c1=O (single isomer, unassigned) [Compound 38b]	full length N-terminally FLAG-tagged PARP1 (Homo sapiens, UniProt P09874)	1000 to 10000 nM
CNC(=O)c1ccc(N2CCC(N3CCC(c4cc5c(Cl)cccc5c(=O)[nH]4)C3)CC2)cn1 (single isomer, unassigned) [Compound 137b]	full length N-terminally FLAG-tagged PARP1 (Homo sapiens, UniProt P09874)	< 10 nM
N#Cc1ccc(N2CCC(N3CCC(c4nc5ccccc5c(=O)[nH]4)C3)CC2)cc1 (single isomer, unassigned) [Compound 34b]	full length N-terminally FLAG-tagged PARP1 (Homo sapiens, UniProt P09874)	< 10 nM

So, CNC(=O)c1ccc(N2CCC(N3CCCC(c4nc5cnccc5c(=O)[nH]4)C3)CC2)cn1 (single isomer, unassigned) [Compound 106b] ? Its Kd was > 10000 nM

So, CCc1nc(C(=O)NC)ccc1N1CCC(N2CCCC(c3nc4ccccc4c(=O)[nH]3)C2)CC1 (single isomer, unassigned) [Compound 112b] ? Its Kd was 10 to 100 nM

So, COCCNC(=O)c1ccc(N2CCC(N3CCCC(c4nc5ccccc5c(=O)[nH]4)C3)CC2)cn1 (single isomer, unassigned) [Compound 116a] ? Its Kd was 10 to 100 nM
